Experiment: folding enthalpy; higher = less favourable; fluorescence melt of hairpins on a sequencing array, two-state fit
Details: sodium 0.088 M
Listing of recorded folding enthalpy by entry.
experimental.readout: folding enthalpy (kcal/mol)

[
  {
    "sequence.string": "GCTGATCGAAAGATTAGC (((.(((....))).)))",
    "result.unit": "kcal/mol",
    "value.measured": -47.2
  },
  {
    "sequence.string": "GACCGCGGAAACACGGTC (((((.(....).)))))",
    "result.unit": "kcal/mol",
    "value.measured": -52
  },
  {
    "sequence.string": "GCGATTCCGAAAGGACGC (((..(((....))))))",
    "result.unit": "kcal/mol",
    "value.measured": -26.3
  },
  {
    "sequence.string": "GATCGGAGGGCCGATC ((((((....))))))",
    "result.unit": "kcal/mol",
    "value.measured": -37.3
  },
  {
    "sequence.string": "GAGCAACCGAAAGGTCTC (((..(((....))))))",
    "result.unit": "kcal/mol",
    "value.measured": -13.1
  },
  {
    "sequence.string": "GTTCCTGGAAACAGGAAC (((((((....)))))))",
    "result.unit": "kcal/mol",
    "value.measured": -40.9
  },
  {
    "sequence.string": "GATCAGAAGCTGATC ((((((...))))))",
    "result.unit": "kcal/mol",
    "value.measured": -33
  },
  {
    "sequence.string": "GGATGGACGAAAGTCTCC (((..(((....))))))",
    "result.unit": "kcal/mol",
    "value.measured": -13.6
  },
  {
    "sequence.string": "GGTAAGGGAAACCTTATC (.(((((....))))).)",
    "result.unit": "kcal/mol",
    "value.measured": -25.6
  },
  {
    "sequence.string": "GTAAGCGAAAGCTTAC ((((((....))))))",
    "result.unit": "kcal/mol",
    "value.measured": -27.9
  },
  {
    "sequence.string": "GGTACGACGAAAGTCACC (((..(((....))))))",
    "result.unit": "kcal/mol",
    "value.measured": -13.4
  },
  {
    "sequence.string": "GAGAGCGAAAGCTCCCTC ((((((....)))..)))",
    "result.unit": "kcal/mol",
    "value.measured": -10.3
  },
  {
    "sequence.string": "GGCTACTCGAAAGAGGCC (((..(((....))))))",
    "result.unit": "kcal/mol",
    "value.measured": -30
  },
  {
    "sequence.string": "GGTGGGCGAAAGCCACC (((.(((....))))))",
    "result.unit": "kcal/mol",
    "value.measured": -21.3
  }
]

---

Assay: melting temperature; fluorescence melt of hairpins on a sequencing array, two-state fit, raised by 9.35 °C to match UV melts
Details: sodium 0.088 M
experimental.readout: Tm (°C)

[
  {
    "sequence.string": "GCTCGGACGAAAGTCAGC (((..(((....))))))",
    "result.unit": "°C",
    "value.measured": 39.1
  },
  {
    "sequence.string": "GATCAATAGTTGATC ((((((...))))))",
    "result.unit": "°C",
    "value.measured": 40.5
  },
  {
    "sequence.string": "GCACTACCGAAAGGTTGC (((..(((....))))))",
    "result.unit": "°C",
    "value.measured": 39.6
  },
  {
    "sequence.string": "GCAATGCGAAAGCACGGC ((..(((....)))..))",
    "result.unit": "°C",
    "value.measured": 36.3
  },
  {
    "sequence.string": "GATCAGCGATCTGATC ((((((....))))))",
    "result.unit": "°C",
    "value.measured": 50
  },
  {
    "sequence.string": "GATGTTGGAAACAATATC (((.(((....))).)))",
    "result.unit": "°C",
    "value.measured": 37.5
  },
  {
    "sequence.string": "CGTTCGAAAGAACG (((((....)))))",
    "result.unit": "°C",
    "value.measured": 58.2
  },
  {
    "sequence.string": "GATCGTACCCACGATC ((((((....))))))",
    "result.unit": "°C",
    "value.measured": 54.1
  },
  {
    "sequence.string": "GAAGACCGAAAGGTTTC (((.(((....))))))",
    "result.unit": "°C",
    "value.measured": 37
  },
  {
    "sequence.string": "GCCAACGAAAGTTACGGC ((((((....)))..)))",
    "result.unit": "°C",
    "value.measured": 41.3
  },
  {
    "sequence.string": "GCGACTCCGAAAGGACGC (((..(((....))))))",
    "result.unit": "°C",
    "value.measured": 46.7
  },
  {
    "sequence.string": "GCAGTTCGAAAGAATTGC (((.(((....))).)))",
    "result.unit": "°C",
    "value.measured": 52.6
  },
  {
    "sequence.string": "GTTGTGGGAAACCGTAAC (((..((....))..)))",
    "result.unit": "°C",
    "value.measured": 29.2
  },
  {
    "sequence.string": "GTGCTAGGAAACTAACAC (((.(((....))).)))",
    "result.unit": "°C",
    "value.measured": 34.4
  },
  {
    "sequence.string": "GCGTCCGAACGC ((((....))))",
    "result.unit": "°C",
    "value.measured": 53.2
  }
]

---

Assay: folding enthalpy; higher = less favourable; fluorescence melt of hairpins on a sequencing array, two-state fit
Conditions: sodium 0.088 M
Entries and their folding enthalpy values follow.
experimental.readout: folding enthalpy (kcal/mol)

[
  {
    "sequence.string": "GAAGTGGGAAACCATTTC (((.(((....))).)))",
    "value.measured": -30.7
  },
  {
    "sequence.string": "GACTTACGAAAGTAGTC (((.(((....))))))",
    "value.measured": -26.8
  },
  {
    "sequence.string": "GCCGATGGAAACACCGGC ((((.((....)).))))",
    "value.measured": -42.9
  },
  {
    "sequence.string": "TTGCGGAAACGCAA (((((....)))))",
    "value.measured": -18.1
  },
  {
    "sequence.string": "GTGAGCCGAAAGGCACAC (((.(((....))).)))",
    "value.measured": -28.9
  },
  {
    "sequence.string": "GCGGGTGGAAACACCCAC (.(((((....))))).)",
    "value.measured": -11.5
  },
  {
    "sequence.string": "GCTTGGCGAAAGCCGCGC ((..(((....)))..))",
    "value.measured": -15.6
  },
  {
    "sequence.string": "GGTCGGGCGAAAGCCACC (((..(((....))))))",
    "value.measured": -11.9
  },
  {
    "sequence.string": "GCAGCGCGAAAGCACCGC ((.(.((....)).).))",
    "value.measured": -21.5
  },
  {
    "sequence.string": "GATCATATGATGATC ((((((...))))))",
    "value.measured": -31.3
  },
  {
    "sequence.string": "GGAGAATCGAAAGATTCC (((..(((....))))))",
    "value.measured": -15.8
  },
  {
    "sequence.string": "GCAACGCGAAAGCATCGC ((.(.((....)).).))",
    "value.measured": -13.5
  },
  {
    "sequence.string": "GAGGCTGGAAACAGCCCC (.(((((....))))).)",
    "value.measured": -8.68
  },
  {
    "sequence.string": "GATCACTTTGGTGATC ((((((....))))))",
    "value.measured": -42.3
  },
  {
    "sequence.string": "GTACACGAAAGTGGTAC ((((((....))).)))",
    "value.measured": -17.9
  },
  {
    "sequence.string": "GCGAATATCGC ((((...))))",
    "value.measured": -16.6
  },
  {
    "sequence.string": "GGTAGAGGAAACTCCACC (((.(((....))).)))",
    "value.measured": -28.2
  },
  {
    "sequence.string": "GAGCTAGAAATAGCTC ((((((....))))))",
    "value.measured": -33.6
  },
  {
    "sequence.string": "GGTTTGGGAAACCGAATC (.((.((....)).)).)",
    "value.measured": -20.2
  },
  {
    "sequence.string": "GGTGAGGGAAACTTCACC (((((.(....).)))))",
    "value.measured": -32.1
  },
  {
    "sequence.string": "GCTGCGCGAAAGCGGCGC ((..(((....)))..))",
    "value.measured": -15.5
  },
  {
    "sequence.string": "GCATAGCGAAAGCAGTGC (((..((....))..)))",
    "value.measured": -17
  },
  {
    "sequence.string": "GATCGACACCTCGATC ((((((....))))))",
    "value.measured": -44.7
  },
  {
    "sequence.string": "GATCCTCTGAGGATC ((((((...))))))",
    "value.measured": -33
  },
  {
    "sequence.string": "GATCTCATGCGAGATC ((((((....))))))",
    "value.measured": -48.3
  },
  {
    "sequence.string": "GCAACGGGAAACCGCTGC (((.(((....))).)))",
    "value.measured": -44
  },
  {
    "sequence.string": "GATTTTGGAAACAAAATC (((((((....)))))))",
    "value.measured": -46.4
  }
]
